System: U-251
ASSAY EXPLANATION: Anticancer activity against human U251 cells after 48 hrs by SRB assay
Assay type: functional
APPLIED CONDITIONS: U-251, 48 h
VALUE TYPE: GI50

{"columns": ["MOL SMILES", "VALUE TYPE", "RESULT"],
 "data": [
  ["COc1cccc(-c2nc3sccn3c2-c2ccnc(NCCNC(=O)Nc3cccc(C(F)(F)F)c3)n2)c1", "GI50", "3.95 µM"],
  ["O=C(NCCNc1nccc(-c2c(-c3cccc(O)c3)nc3sccn23)n1)Nc1cccc(C(F)(F)F)c1", "GI50", "4.95 µM"],
  ["O=C(NCCNc1nccc(-c2c(-c3cccc(O)c3)nc3sccn23)n1)c1ccccc1O", "GI50", "0.152 µM"],
  ["O=C(NCCNc1nccc(-c2c(-c3cccc(O)c3)nc3sccn23)n1)c1ccccc1", "GI50", "17.9 µM"]
]}
